The measured values listed here are drawn from the supplement of paper PMC9170038.

# Test system: K4 kissing-loop RNA reporter;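 also: bound reporter read as fluorescence of individual clusters on recovered sequencing chips by microscopy, with normalized cluster intensities fitted with a binding model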
# Experimental details: apparent KD of K4 kissing-loop reporter; higher = weaker reporter binding
# Applied conditions: Eterna round: R107; input ligand: arginine 13.2 mM
Measure name: apparent KD of K4 kissing-loop reporter (nM)
Report the value in nM with no unit label.

I looked up GCGCGUCAUGUCAGCGGUGACACUGUCGAUACCAGUGCCGGAAGGCGCCCUUGGCAGCGACGUGCUGGAGUGAUGUUCCAGCGUU [#2 Exclusion - Theophylline A Attempt #28 (HarryS)] and its apparent KD of K4 kissing-loop reporter for K4 kissing-loop RNA reporter was 128

I looked up GAUAUAGUGAUGUUAUAUACUGAUAGACAACGAGGACCGGUACGGCCGCCACUCGAGAGGGUGAAAAUGAUGAUAAAAUAAUGAU [#02 K4 Tryptophan A Exclusion] and its apparent KD of K4 kissing-loop reporter for K4 kissing-loop RNA reporter was 318

I looked up UCUUGAGUAUAUGAUACCAGCAGUGAGAGACAGGAAGUAUAGUGAUGUUAUAUGAGAGAAUGCCCUUGGCAGCGUGUGCGGUGGG [SSTheophylB.S] and its apparent KD of K4 kissing-loop reporter for K4 kissing-loop RNA reporter was 144

I looked up AAGUGUGUGGCGGCCGCCACUAGAAUCCAGUGAUGUUGGAGAUAUCACGUAAGUGAUAUCCAACAUAGGACCGGGCCAUAUAGAA [Same State - Tryptophan B (Freestyle 12)] and its apparent KD of K4 kissing-loop reporter for K4 kissing-loop RNA reporter was 111

I looked up UUUUGGUUCUGAGGAUAUUCGAAGAAAUAUAGUGAUGUUAUAUAAGGAGGAGGAUGUAGGGAGGAAGGAGAAGGCAGAAGAGGAG [ExFMNB.J] and its apparent KD of K4 kissing-loop reporter for K4 kissing-loop RNA reporter was 915

I looked up ACUUUGGGCCCAGUGAUGUUGGGUCCAGAUACCAGACGUAAAUAAGUCCCUUGGCAGCUGCGUACUAACUAGCACAGGAGGGUCC [Edleaes] and its apparent KD of K4 kissing-loop reporter for K4 kissing-loop RNA reporter was 143

I looked up AGUAAUGAGUGAUGUUCAAUUAGUAAGGAUACCAGUAAUUCAAAAUGCCCUUGGCAGCUUAACGCUACCAAUAGAUUAAUAAUGG [First try - Theophylline A] and its apparent KD of K4 kissing-loop reporter for K4 kissing-loop RNA reporter was 180

I looked up AAUAACUAGUAUAUUUUUAAUAAUACAGAUACCAGUGAUAAUAAACACCCUUGGCAGCUGAUCGAGUGAUGUUCGUUUAUUUUAA [JR_SSTheophyA_Sub002] and its apparent KD of K4 kissing-loop reporter for K4 kissing-loop RNA reporter was 74.6

I looked up AGUAGUUGGACGGCCGCCACUAGAACGCCUUUGCCAAAGGCAGAGGACUAGAGUGAUGUUCUAGCUAGGACCGGGUCCAACUACA [Omei KL Tryp B SS A v4] and its apparent KD of K4 kissing-loop reporter for K4 kissing-loop RNA reporter was 232
